# measured-on: T1, human PCSK9 variant a (human, UniProt Q8NBP7 31-692)
# T1 construct: also called Human PCSK9 var A; hPCSK9a
# experiment-description: ProteOn SPR, captured antibody, pH 7.6;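 also: antibodies captured via anti-human Fc on a GLC sensor chip, PCSK9 binding sensorgrams fitted to a 1:1 Langmuir model giving on and off rates, with KD derived from them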
Below, each of the binders is paired with its reported Kd value.
Expressed in nM, but write only the number.

binder	value-units	Kd
CL-148219 QLT mutant (antibody, V domains shown) VH: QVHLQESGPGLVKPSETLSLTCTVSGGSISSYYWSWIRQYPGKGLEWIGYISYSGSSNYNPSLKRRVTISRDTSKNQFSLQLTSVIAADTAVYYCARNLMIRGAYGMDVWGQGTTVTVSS VL: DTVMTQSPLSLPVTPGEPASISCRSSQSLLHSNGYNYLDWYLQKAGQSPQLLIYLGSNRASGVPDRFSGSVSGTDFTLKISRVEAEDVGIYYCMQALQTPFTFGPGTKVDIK	nM	0.267

Data point: CL-274698 (antibody, V domains shown, Human antibody with a kappa light chain, derived from a PCSK9 knockout mouse) VH: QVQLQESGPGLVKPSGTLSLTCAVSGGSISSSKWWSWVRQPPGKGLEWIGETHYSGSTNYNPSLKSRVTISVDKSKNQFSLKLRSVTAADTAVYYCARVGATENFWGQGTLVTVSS VL: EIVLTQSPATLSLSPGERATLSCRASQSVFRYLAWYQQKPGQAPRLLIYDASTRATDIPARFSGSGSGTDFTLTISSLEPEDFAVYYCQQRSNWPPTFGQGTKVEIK ; Kd = 0.0998

Data point: CL-148219 (antibody, V domains shown, NLT motif in heavy chain framework 3 confirmed N-glycosylated by mass spectrometry, Human antibody, captured through anti-human Fc in the SPR assay) VH: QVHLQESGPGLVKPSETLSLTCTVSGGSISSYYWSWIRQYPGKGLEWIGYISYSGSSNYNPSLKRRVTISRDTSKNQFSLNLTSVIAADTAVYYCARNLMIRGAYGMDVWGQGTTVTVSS VL: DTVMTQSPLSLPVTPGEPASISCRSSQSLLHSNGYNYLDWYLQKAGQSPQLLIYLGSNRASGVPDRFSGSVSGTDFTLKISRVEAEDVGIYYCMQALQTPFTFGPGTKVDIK ; Kd = 0.216

Data point: CL-148489 (antibody, V domains shown, Human antibody with a kappa light chain) VH: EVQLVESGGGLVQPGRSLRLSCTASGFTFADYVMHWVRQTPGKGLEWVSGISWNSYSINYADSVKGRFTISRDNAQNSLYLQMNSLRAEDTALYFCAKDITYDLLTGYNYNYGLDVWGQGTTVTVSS VL: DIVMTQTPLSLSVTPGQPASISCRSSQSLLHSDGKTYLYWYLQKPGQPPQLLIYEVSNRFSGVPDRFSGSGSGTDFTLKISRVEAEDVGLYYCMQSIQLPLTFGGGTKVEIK ; Kd = 0.175
